Readings of pIC50 for the listed compounds
target-under-test: recombinant human FAK1 (Homo sapiens)
Construct: fused on or other part: N-terminal 6xHis tag
run-description: FAK1 HTRF assay
pIC50: −log10 of the molar value.
reported-endpoint: pIC50

compound=O=S(=O)(c1cccc2cccnc12)n1ncc2cnc(Nc3ccc(N4CCN(CCO)CC4)cc3)cc21 value_observed="> 7.70"
compound=COc1cc(N2CCC(O)CC2)ccc1Nc1cc2c(ccn2S(=O)(=O)c2cccc3cccnc23)cn1 value_observed="> 7.70"
compound=C[C@H]1CNCCN1c1ccc(Nc2ncc3ccn(S(=O)(=O)c4cccc5cccnc45)c3n2)cc1 value_observed="> 7.70"
compound=COc1ccccc1S(=O)(=O)n1ccc2cnc(Nc3ccc4c(c3)CCC(=O)N4)nc21 value_observed="> 7.70"
compound=O=S(=O)(c1cccc2cccnc12)n1ccc2cnc(Nc3ccc(N4CCNCC4)cc3OC3CCC3)cc21 value_observed="< 6.00"
compound=CN1CCN(c2ccc(Nc3cc4c(ccn4S(=O)(=O)c4ccccc4C#N)cn3)cc2)CC1 value_observed="> 7.70"
compound=CN(c1ccccc1Cn1ccc2cnc(Nc3ccc(N4CCNCC4)cc3)cc21)S(C)(=O)=O value_observed="> 7.70"
compound=COc1cc(N2CCNCC2)ccc1Nc1ncc2ccn(S(=O)(=O)c3cccc4cccnc34)c2n1 value_observed="> 7.70"
compound=C[C@@H]1CN(c2ccc(Nc3ncc4c(n3)N(S(=O)(=O)c3cccc5cccnc35)CC4(C)C)cc2)CCN1 value_observed="> 7.70"
compound=CN(C)C1CCN(c2ccc(Nc3cc4c(cn3)C(C)(C)CN4S(=O)(=O)c3cccc4cccnc34)cc2)CC1 value_observed="> 7.70"
compound="O=S(=O)(c1cccc2cccnc12)n1ccc2cnc(Nc3ccc(N4CC5CC4CN5)cc3)cc21 (centres unmarked)" value_observed="> 7.70"
compound=Cn1cnc(S(=O)(=O)n2ccc3cnc(Nc4ccc(N5CCNCC5)cc4)nc32)c1 value_observed="< 6.00"
compound=N#Cc1ccccc1S(=O)(=O)n1cc(F)c2cnc(Nc3ccc(N4CCNCC4)cc3)nc21 value_observed="> 7.70"
compound=N#Cc1ccccc1S(=O)(=O)n1ccc2cnc(Nc3ccc(N4CCC(O)CC4)cc3)cc21 value_observed="> 7.70"

====

target-under-test: recombinant human FAK1 (Homo sapiens, UniProt Q05397)
Construct: fused on or other part: N-terminal 6xHis tag
Sequence (Q05397 422-680 limits assumed): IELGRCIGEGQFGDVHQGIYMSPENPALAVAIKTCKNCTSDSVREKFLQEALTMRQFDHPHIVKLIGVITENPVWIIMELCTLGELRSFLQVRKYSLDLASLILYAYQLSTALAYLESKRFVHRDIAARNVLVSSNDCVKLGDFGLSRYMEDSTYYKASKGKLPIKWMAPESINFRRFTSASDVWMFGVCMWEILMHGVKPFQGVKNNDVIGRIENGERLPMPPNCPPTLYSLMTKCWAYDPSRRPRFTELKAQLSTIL
run-description: FAK1 HTRF assay
Readings of IC50 for the listed compounds
reported-endpoint: IC50

compound="CN(C)C1CCN(c2ccc(Nc3ncc4ccn(Cc5ccccc5N(C)S(C)(=O)=O)c4n3)cc2F)C1 (stereo not drawn)" value_observed="< 20 nM"
compound=CN(c1ncccc1Cn1cc(C(N)=O)c2cnc(Nc3ccc(N4CCNCC4)cc3)nc21)S(C)(=O)=O value_observed="> 1000 nM"
compound="COc1cc(Nc2ncc3ccn(S(=O)(=O)c4cccc5cccnc45)c3n2)ccc1N1CC2CC1CN2C (stereo not drawn)" value_observed="< 20 nM"
compound=O=S(=O)(c1ccc(Nc2cc3c(ccn3Cc3cccnc3)cn2)cc1)C(F)F value_observed="> 1000 nM"
compound=COc1cc(N2CCN(C)CC2)ccc1Nc1ncc2c(n1)N(S(=O)(=O)c1cccc3cccnc13)CC2(C)C value_observed="< 20 nM"
compound=COc1cc(N2CCC(O)CC2)ccc1Nc1ncc2ccn(S(=O)(=O)c3cccc4cccnc34)c2n1 value_observed="< 20 nM"

====

target-under-test: recombinant human FAK1 (Homo sapiens, UniProt Q05397)
Construct: fused on or other part: N-terminal 6xHis tag
run-description: FAK1 HTRF assay
pIC50: −log10 of the molar value.
Readings of pIC50 for the listed compounds
reported-endpoint: pIC50

smi=CN(c1ccc(OC(F)F)cc1Cn1ccc2cnc(Nc3ccc(N4CCNCC4)cc3)nc21)S(C)(=O)=O value_observed="> 7.70"
smi=COc1cc(Nc2ncc3ccn(S(=O)(=O)c4cccc5cccnc45)c3n2)ccc1N1CCN(C)CC1 value_observed="> 7.70"
smi=COc1cc(N2CCN(CCO)CC2)ccc1Nc1ncc2ccn(S(=O)(=O)c3cccc4cccnc34)c2n1 value_observed="> 7.70"
smi=COc1cc(Nc2ncc3ccn(S(=O)(=O)c4cccc5cccnc45)c3n2)ccc1N1CCOCC1 value_observed="> 7.70"
smi=O=C1CCc2cc(Nc3ncc4ccn(S(=O)(=O)c5cccc(OC(F)(F)F)c5)c4n3)ccc2N1 value_observed="< 6.00"
smi=O=S(=O)(C1CCCC1)n1ccc2cnc(Nc3ccc(N4CCNCC4)cc3)nc21 value_observed="< 6.00"
smi=Cc1ccc(N(C)S(C)(=O)=O)c(Cn2ccc3cnc(Nc4ccc(C5CCNCC5)cc4)nc32)c1 value_observed="> 7.70"
smi=CC1(C)CN(S(=O)(=O)c2cccc3cccnc23)c2nc(Nc3ccc(N4CCNCC4)cc3)ncc21 value_observed="> 7.70"
smi=CC(=O)Nc1ccc(Nc2cc3c(cn2)c(C)nn3Cc2cccnc2N(C)S(C)(=O)=O)nc1 value_observed="< 6.00"
smi=CN(c1ncccc1Cn1ccc2cnc(Nc3ccc4c(c3)CCC(=O)N4)nc21)S(C)(=O)=O value_observed="> 7.70"
smi=CC(C)N1CCN(c2ccc(Nc3ncc4ccn(Cc5ccccc5N(C)S(C)(=O)=O)c4n3)cc2)CC1 value_observed="> 7.70"

====

These records show IC50 for AURKB (Aurora B) enzyme (Homo sapiens, UniProt Q96GD4).
reported-endpoint: IC50

molecule=CN(C)c1cccc(Nc2ncc3ccn(Cc4cccnc4N(C)S(C)(=O)=O)c3n2)c1 value_observed="< 20 nM"
molecule=CS(=O)(=O)Nc1ccccc1Cn1ccc2cnc(Nc3ccc4c(c3)OCC(=O)N4)nc21 value_observed="< 20 nM"
molecule=CC1(C)CN(S(=O)(=O)c2cccc3cccnc23)c2nc(Nc3ccc(N4CCNCC4)c(F)c3)ncc21 value_observed="> 1000 nM"
molecule=COc1cc(N2CCN[C@@H](C)C2)ccc1Nc1ncc2ccn(Cc3cccnc3N(C)S(C)(=O)=O)c2n1 value_observed="> 1000 nM"
molecule=CN(c1ccccc1Cn1ccc2cnc(Nc3ccc4c(c3)CC(=O)N4)nc21)S(C)(=O)=O value_observed="< 20 nM"
molecule=O=S(=O)(c1ccccc1Cl)n1ccc2cnc(Nc3ccc(N4CCNCC4)cc3)nc21 value_observed="< 20 nM"
molecule=N#Cc1ccccc1S(=O)(=O)n1ccc2cnc(Nc3ccc(N4CCN(CCO)CC4)cc3)cc21 value_observed="< 20 nM"
molecule=FC(F)Oc1ccccc1Cn1ncc2cnc(Nc3ccc4ncsc4c3)cc21 value_observed="> 1000 nM"
molecule=Cc1cc(Nc2cc3c(ccn3S(=O)(=O)c3cccc4cccnc34)cn2)ccc1N1CCNCC1 value_observed="< 20 nM"
molecule=CN1CCC(NC(=O)c2ccc(Nc3ncc4ccn(Cc5ccccc5N(C)S(C)(=O)=O)c4n3)cc2)CC1 value_observed="< 20 nM"
molecule=O=S(=O)(c1cccc2cnccc12)n1ccc2cnc(Nc3ccc(N4CCNCC4)cc3)nc21 value_observed="< 20 nM"
molecule=COc1cc(Nc2cc3c(ccn3S(=O)(=O)c3cccc4cccnc34)cn2)ccc1N1CCNCC1 value_observed="< 20 nM"
molecule=COc1cc(N2CCNCC2)ccc1Nc1ncc2ccn(S(=O)(=O)c3cccc4cccnc34)c2n1 value_observed="< 20 nM"
molecule=CC(=O)Nc1ccc(Nc2ncc3ccn(S(=O)(=O)c4cccc5cccnc45)c3n2)cc1 value_observed="< 20 nM"
molecule=O=S(=O)(c1cccc2cccnc12)n1ccc2cnc(Nc3ccc(CN4CCNCC4)cc3)nc21 value_observed="< 20 nM"
molecule="CN(c1ccccc1Cn1ccc2cnc(Nc3ccc(N4CCNC(CO)C4)cc3)nc21)S(C)(=O)=O (centres unmarked)" value_observed="< 20 nM"
molecule=FC(F)Oc1ccccc1Cn1ccc2cnc(Nc3ccc4ncsc4c3)cc21 value_observed="> 1000 nM"

====

Readings of IC50 for the listed compounds
target-under-test: Recombinant Src enzyme (Homo sapiens)
Sequence (P12931 whole entry): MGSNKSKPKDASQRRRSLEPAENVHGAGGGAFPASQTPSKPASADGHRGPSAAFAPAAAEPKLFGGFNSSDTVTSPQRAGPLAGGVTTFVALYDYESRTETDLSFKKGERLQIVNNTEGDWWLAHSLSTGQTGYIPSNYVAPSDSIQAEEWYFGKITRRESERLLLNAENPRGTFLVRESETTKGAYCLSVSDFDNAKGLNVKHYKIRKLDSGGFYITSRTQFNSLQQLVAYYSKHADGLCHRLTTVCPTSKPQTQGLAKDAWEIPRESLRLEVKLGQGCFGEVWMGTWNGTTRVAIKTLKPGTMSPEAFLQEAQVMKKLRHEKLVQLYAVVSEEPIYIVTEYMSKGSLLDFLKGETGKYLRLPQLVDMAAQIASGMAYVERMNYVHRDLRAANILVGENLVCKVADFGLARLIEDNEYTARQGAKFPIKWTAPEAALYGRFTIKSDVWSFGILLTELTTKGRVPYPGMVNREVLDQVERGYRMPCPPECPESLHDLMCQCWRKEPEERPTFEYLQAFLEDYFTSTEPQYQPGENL
run-description: Src HTRF assay
reported-endpoint: IC50

smi=Cc1ccc(N(C)S(C)(=O)=O)c(Cn2ccc3cnc(Nc4ccc5c(c4)CC(=O)N5)nc32)c1 reported_endpoint=IC50 value_observed="> 1000 nM"
smi=CN(c1ncccc1Cn1ccc2cnc(Nc3ccc4c(c3)NCCO4)nc21)S(C)(=O)=O reported_endpoint=IC50 value_observed="< 20 nM"
smi=CN(c1ncccc1Cn1ccc2cnc(Nc3ccc(C4=CCNCC4)cc3)nc21)S(C)(=O)=O reported_endpoint=IC50 value_observed="< 20 nM"
smi=COc1cc(Nc2cc3c(ccn3Cc3cccnc3N(C)S(C)(=O)=O)cn2)ccc1N1CCNCC1 reported_endpoint=IC50 value_observed="> 1000 nM"
smi=O=S(=O)(c1cc(Cl)ccc1Cl)N1CC2(CC2)c2cnc(Nc3ccc(N4CCNCC4)cc3)nc21 reported_endpoint=IC50 value_observed="> 1000 nM"
smi=CN(C)C1CCN(c2ccc(Nc3ncc4ccn(Cc5ccc(C#N)cc5N(C)S(C)(=O)=O)c4n3)cc2)CC1 reported_endpoint=IC50 value_observed="> 1000 nM"
smi=CN(C)C1CCN(c2ccc(Nc3nc4c(ccn4Cc4cccnc4N(C)S(C)(=O)=O)cc3C#N)cc2)CC1 reported_endpoint=IC50 value_observed="> 1000 nM"
